- Species on record: Homo sapiens
- testMethodNotes: To identify inhibition of the IFN signalling (Jak-Stat) pathway via expression of an eGFP reporter gene under the control of an IFN-stimulated response element (ISRE) containing MxA promoter.
- Format: functional
- Parameters: scale not given: direction of the effect not stated beside the values
- statedConditions: 30 µM
reportedMetric: Percent Effect (%)
Output spec: scalar in %, unitless text.

>>> print(df.to_string())
                                   molecule  unitstring  reportedvalue
0  CCc1nc(C2CCCN2Cc2nnc(Cc3ccccc3)o2)no1 (stereo unspecified)           %          -2.79
1  COc1ccc(CN(C)C(=O)CCc2c(C)nc(C)[nH]c2=O)cc1OC           %          -1.63
2  C[S+]([O-])CCCNC(=O)c1cc(Br)c2c(c1)OCCO2 (stereo unspecified)           %           8.03
3             CCOC(=O)c1sc2ccsc2c1CNC(=O)CC           %             19
4  Cc1ccc(CC(=O)N2CCCC(c3nc(C)cs3)C2)cn1 (stereo unspecified)           %          -13.1

Requested read-out: Percent Effect. Entry: `CC(C)CC(=O)N1CC[C@@H]2[C@H](CC1)N(S(C)(=O)=O)CCS2(=O)=O` 6.42

How about Cc1cn2c(n1)CCC(NC(=O)c1cnc(C)nc1C(C)C)C2 (stereo unspecified) ? 1.24

How about CN(Cc1cn2c(n1)CN(C1CCOC1)CC2)Cc1ccco1 (stereo unspecified) ? 15.2

How about `Cc1nn2c(N3CCC(O)CC3)cc(-c3ccccc3)nc2c1C` ? 16

How about Cc1cnc2c(S(=O)(=O)NCC3CCN(C4CC4)C3)cccc2c1 (stereo unspecified) ? -27.5

How about CC1=NN(c2ccc(C(=O)N3CCCC(n4ccnc4)C3)cc2)CC1 (stereo unspecified) ? 15.8
